- Test system: NOMO1
- assay.explanation: cell viability relative to DMSO control; higher = less cytotoxic
- run.conditions: RPMI 5 mM glucose + 10% dialyzed FBS; 48 h; 0.0632 µM
Measured cell viability of individual entries
experimental.endpoint: cell viability (%)

• C[C@@H](CN1CC(=O)NC(=O)C1)N1CC(=O)NC(=O)C1 = 109
• COc1ccc2c(c1)[C@]13CCCCC1C(C2)N(C)CC3 (stereo partly drawn) = 135
• Nc1ccc([S+](=O)([O-])Nc2ccnn2-c2ccccc2)cc1 = 100
• NC[C@H]1O[C@H](O[C@@H]2[C@H](O)[C@@H](O[C@H]3O[C@H](CO)[C@@H](O)[C@H](N)[C@H]3O)[C@H](N)C[C@@H]2N)[C@H](O)[C@@H](O)[C@@H]1O = 113
• CCOC(=O)C(C)OC1=CC=CC2=C1\C=C/N(CC(=O)NC3=CC=C4OCCOC4=C3)C2=O (stereo not drawn) = 94.6
• CCCCOc1c(C(=O)c2c(F)cc(C)cc2F)cnc2[nH]ncc12 = 92.7
• COc1cc2c(cc1OC)CN(CCc1ccc(NC(=O)c3cc(OC)c(OC)cc3NC(=O)c3cnc4ccccc4c3)cc1)CC2 = 115
• COc1cc[nH]c2ncc(C(=O)C(=O)N3CCN(C(=O)c4ccccc4)C[C@H]3C)c1-2 = 119
